- Tested on: MDA-MB-231 breast
- Experiment Description: NCI tumour cell line growth inhibition, 384-well format; in the data active = GI50 below about 0.43 µM; inactive = the rest
Classes used: active, inactive

COc1cc(-c2ncn(/C=C\C(=O)OC(C)C)n2)cc(C(F)(F)F)c1	active
Cc1ncsc1-c1ccc(CNC(=O)[C@@H]2C[C@@H](O)CN2C(=O)[C@@H](NC(=O)C2(C#N)CC2)C(C)(C)C)cc1	inactive
Cc1cc(Oc2ccc3nc(COc4ccc(CC5SC(=O)NC5=O)cc4)n(C)c3c2)cc(C)c1N (centres undefined)	inactive
O=C(NCc1ccncc1)C12CC3CC(C1)CC(c1ccc(Cl)cc1)(C3)C2	inactive
